- Target System: T1, HLA-DRB1*1101 (human)
- T1 chain 1: not shown
- T1 chain 2: not shown
- Run Description: inhibition of 125I probe peptide binding to purified HLA-DR, gel filtration
- Protocol Conditions: remark: other sources report otherwise
Measured Metric: IC50 (nM)

                           binder  endpoint_value
0  VLGVVFGILIKRRQQ [Her2/neu.666]              43
1  VWELMTFGAKPYDGI [Her2/neu.912]            3700

FYI, the data here is from patent US20040018971A1.
